Origin of values: PubChem BioAssay (NCI)

# Tested on: OVCAR-4 ovarian
# assayRemarks: NCI-60 one-dose screen, 48 h
# conditionParameters: 10 µM unless noted
The panel holds about 83,000 compounds, 20% with a hit somewhere; the sample as a whole holds those more often. Activity calls are given as the source filed them. The calls were made as follows: active = growth percent below 10; inactive = the rest.
Answer with one of the outcomes active, inactive

As a guide, the following entries are already answered.
Req: For O=c1cc(-c2ccccc2)[nH]c2ncc(-c3ccc(F)cc3)n12 , what call appears in the results of this test?
Resp: inactive

Req: What outcome does the record of this test show for CC1C=CC(OC(=O)C(C)(O)CCC(O)(C(=O)OC2CC(O)C(C(C)C)CC2(C)O)C(C)C)(C(C)C)CC1 (stereo not given) ?
Resp: active

Req: What was the test verdict on CN1CCN(c2ccc3nc4c(nc3c2C(F)(F)F)C(=O)c2ncccc2C4=O)CC1 ?
Resp: active

Req: So what was the verdict on O=C(NC(Cc1nnc2n(Cc3ccccc3)c(=O)c3c4c(sc3n12)CCCC4)c1ccccc1)c1ccccc1 (stereo not given) in this test?
Resp: inactive

Okay, now this compound:
Req: Recorded test outcome, item COC(=O)/C=C1/SC(=Nc2ccc([N+](=O)[O-])cc2)N(CCc2c[nH]c3ccc(O)cc23)C1=O
Resp: inactive

###

# System: OVCAR-3 ovarian
# assayRemarks: NCI-60 one-dose screen, 48 h (100 = growth as untreated, 0 = no growth, -100 = all killed)
# conditionParameters: 10 µM unless noted
Compounds without any hit were thinned out: in the full panel of roughly 83,000, 20% have a hit.
Some compounds, each annotated with its measured growth.
Reply with just the number (in %).

Look over these answered cases.
Req: growth lookup needed for N=C(N)c1ccc(-c2ccc(-c3ccccc3)s2)cc1 , thanks.
Resp: 53.7

Req: I am curious: what growth value has been reported for Fc1cccc(-c2ccc3c(c2)C2(CCNCC2)CN3)c1 ?
Resp: 102

Req: Need growth of COc1ccc(C2=CN3CC=CC3CC2=O)cc1 (stereo unspecified) , thanks.
Resp: 102

Req: What measured growth goes with Cc1nn(-c2cc(NC3CCC(O)CC3)c3c(=O)[nH]c(CCC(F)(F)F)cc3c2)c2c1C(=O)CC(C)(C)C2 (stereo unspecified) ?
Resp: 70

Req: If you can, please state the reported growth value of O=C(CCCCCNC(=O)c1cc(=O)c(O)co1)Nc1ccccc1 .
Resp: 109

New cases:
Req: Look up growth for this compound: CS(=O)(=O)c1ccc(NC(=O)c2ccccc2)nc1
Resp: 110

###

Item-by-item account of growth
# Tested on: CAKI-1 renal
# assayRemarks: NCI-60 one-dose screen, 48 h (100 = growth as untreated, 0 = no growth, -100 = all killed)
# conditionParameters: 10 µM unless noted
Compounds without any hit were thinned out: in the full panel of roughly 83,000, 20% have a hit.
Give just the numeric value; % need not be written.

Req: # get_value(readout='growth', item= O=C(Nc1ccccc1[N+](=O)[O-])c1ccc(Cl)c(Cl)c1 )
Resp: 92.8

Req: Recorded growth of O=c1c2c3c(sc2n2c(-c4cc(-c5ccccc5)no4)nnc2n1Cc1ccccc1)CCCC3 , please.
Resp: -67.8

Req: Request the reported growth associated with COc1ccc(C(=S)N2CCN(c3ccc(Cl)cc3)CC2)cc1
Resp: 105

Req: Which value of growth has been reported for COc1cc(OC)c(C(=O)C(CN(C)C)CN(C)C)cc1OC in the records?
Resp: 20.3

Req: Entry COc1ccc(-c2cc(-c3ccccc3)nc(N3CCN(CCNc4ccnc5cc(Cl)ccc45)CC3)n2)cc1 : reported growth = ?
Resp: -24.9

Req: Dear colleague, I am looking for the recorded growth of the following compound: Cc1ccc2c(-n3nc(C#N)c(C#N)c3N)cc(=O)[nH]c2c1
Resp: 82.6

Req: Requested read-out: growth. Entry: Nc1[nH]n2cc(-c3ccc(F)cc3)nc2c1N=Nc1ccc(S(N)(=O)=O)cc1
Resp: 47.4

Req: GET /values?readout=growth&item= CCOC(=O)C(Cc1ccc(OC)cc1)C(=O)OCC
Resp: -14.2

Next:
Req: I am curious: what growth value has been reported for CC1(C)C(N)=Nc2cc(OCCCN3Cc4ccccc4C3)c(OCC3CC3)cc21 ?
Resp: 52.5

Req: Data request, read-out growth, for CN(Cc1ccccc1)c1nc(Cl)c(C2CC(c3ccccc3)=NN2c2ccccc2)s1 (centres undefined)
Resp: 68.7

Req: growth for CC(C)CCN(CCC(C)C)CC(O)c1cc2c(c3ccccc13)CCCC2 (centres undefined) ?
Resp: 77.2

Req: Any idea what its growth is? The compound is Cc1ccc(C=C2C(=O)NC(=O)NC2=O)cc1
Resp: 100

Req: Which growth is listed for C#CC#CC#CC#CC#CC#CC#CC#CC[C@@H]1OC[C@@H](COC(=O)O[C@@H](C(=O)O[C@H]2C[C@@]3(O)[C@@H](OC(=O)c4ccccc4)[C@@H]4[C@]5(OC(C)=O)CO[C@@H]5C[C@H](O)[C@@]4(C)C(=O)[C@H](OC(C)=O)C(=C2C)C3(C)C)[C@@H](NC(=O)c2ccccc2)c2ccccc2)O1 ?
Resp: 81.3

Req: Which growth value belongs to N#CC1=C(N)Oc2ccc3ccccc3c2C1c1ccc([N+](=O)[O-])cc1 (centres undefined) ?
Resp: 52.8

Req: Which growth value is on record for CCc1n(Cc2ccc3ccccc3n2)cc[n+]1Cc1ccc2ccccc2n1 ?
Resp: 98

Req: Suppose we examine the compound CC(=O)O[C@H]1C[C@@H]2C(C)(C)C(=O)CC[C@@]2(C)c2ccc(C(C)C)cc21 ; what growth value has been reported?
Resp: 89.6

Req: Would you kindly share the measured growth for O=c1c2ccccc2c(=O)c2c1sc1c(=O)c3ccc(O)cc3c(=O)c12 ?
Resp: -68.5

Req: // query growth value for entry CC1CCN(C(=S)SCC(=O)NC(=O)c2ccccc2)CC1
Resp: 102

Req: Dear colleague, I am looking for the recorded growth of the following compound: O=C(N=Nc1c(O)[nH]c2ccccc12)Nc1ccc(F)cc1
Resp: 81.5

###

# System: TK-10 renal
# assayRemarks: NCI-60 one-dose screen, 48 h (100 = growth as untreated, 0 = no growth, -100 = all killed)
# conditionParameters: 10 µM unless noted
About 83,000 compounds went through this panel and 20% of them were active in at least one assay; those are over-represented in the sample as a whole.
Hi, to clarify the labels: class 1 covers growth from 90% upward, class 0 covers anything below 90%.

Solved cases below.
Req: Kindly determine if growth recorded for O=C(O)c1cn(C2CC2)c2cc(N3CCN(C(=O)Nc4nc(-c5ccc(Br)cc5)cs4)CC3)c(F)cc2c1=O is above or exactly 90%.
Resp: class 0

Req: Item CC(C)(C)c1cc(Cl)c(O)c(CNCCO)c1 with growth of 90% or above?
Resp: class 1

***
Req: Evaluate C[C@H](C(=O)N(CCc1ccc(Cl)c(Cl)c1)Cc1cncs1)[C@@H]1CC[C@H](C[C@H](C)n2cc(CN3CCC(c4ccc(Cl)cc4)CC3)nn2)O1 : growth at minimum 90%?
Resp: class 1

Req: # bool: growth of O=C1Nc2ccccc2/C1=C\c1c[nH]c2ccc(Br)cc12 >= 90%
Resp: class 0

Req: Is growth at least 90%? Consider Cc1ccc(-c2nc(N3CCNCC3)c3oc(-c4ccc(C)cc4)nc3n2)cc1
Resp: class 0

Req: Hi, just wondering whether CCc1ccc(CCC(=O)Nc2ncc(Cc3ccccc3)s2)o1 shows growth of 90% or higher.
Resp: class 0

Req: Is growth at least 90%? Consider C#CCO[C@H]1CC(CC#C)(CC#C)C(=O)[C@@H]2[C@H]1[C@H]1C[C@@H]3[C@@]4(C)CCC[C@@](C)(C(=O)OC)[C@@H]4CC[C@@]23C=C1C(C)C
Resp: class 1

Req: hey, is growth for this one >= 90%? CC(=O)c1ccc(Nc2nccc(-c3ccc4ccccc4c3)n2)cc1
Resp: class 0

Req: Has CCOC(=O)c1c(C)nc2c(c1N)CC(=O)N2Cc1ccc(OC)cc1 a recorded growth greater than or equal to 90%?
Resp: class 0

Req: Dear colleague, could you confirm whether O=C(/C=C/C12c3ccccc3C(c3ccccc31)C1C(=O)NC(=O)C12)c1ccc(Br)cc1 (centres undefined) has growth at or above 90%?
Resp: class 0

Req: hey, is growth for this one >= 90%? NC1=Nc2cc(OCCCCN3Cc4ccccc4C3)c(OCC3CC3)cc2C12CCCC2
Resp: class 0

Req: # check: growth of O=C1c2ccccc2C(=O)C1c1ccc(Br)cc1 is greater than or equal to 90%
Resp: class 1

Req: Decide: is the reported value of growth for CC(=O)Oc1ccc(OC(C)=O)c2ccccc12 equal to or greater than 90%?
Resp: class 1

Req: Determine whether measured growth meets or exceeds 90% for N=c1c(S(=O)(=O)c2ccccc2)cc2c(=O)n3ccccc3nc2n1CC1CCCO1 (centres undefined)
Resp: class 1

Req: Quick check, growth >= 90%? CC1(C)CC[C@]2(CO)CC[C@]3(C)[C@H](CC[C@@H]4[C@@]5(C)CCCNC(C)(C)[C@@H]5CC[C@]43C)[C@H]2[C@H]1O
Resp: class 0

Req: Record CCCCNC(=O)Oc1ccc(/C(=C(/C)Cc2ccc(OC)cc2)c2ccc(OCCN3CCCCCC3)cc2)cc1 ; criterion: growth no lower than 90%. Met?
Resp: class 0

Req: Is it the case that N#CC1=C(N)Oc2ccc3ccccc3c2C1c1ccc([N+](=O)[O-])cc1 (centres undefined) has growth reaching or exceeding 90%?
Resp: class 1

Req: In plain terms: is recorded growth at least 90% for Cc1nc2c(=O)nc3s/c(=C\c4ccco4)c(=O)n3c2nc1C ?
Resp: class 1
